# experimental_target: human HAQ STING isoform (hSTING HAQ) (Homo sapiens, UniProt Q86WV6, G230A/H232R/R293Q/R71H)
# Construct: THP1 cells express the naturally occurring human HAQ STING isoform (hSTING HAQ); host or cells: THP1
# Sequence (Q86WV6 whole entry R71H/G230A/H232R/R293Q, canonical isoform): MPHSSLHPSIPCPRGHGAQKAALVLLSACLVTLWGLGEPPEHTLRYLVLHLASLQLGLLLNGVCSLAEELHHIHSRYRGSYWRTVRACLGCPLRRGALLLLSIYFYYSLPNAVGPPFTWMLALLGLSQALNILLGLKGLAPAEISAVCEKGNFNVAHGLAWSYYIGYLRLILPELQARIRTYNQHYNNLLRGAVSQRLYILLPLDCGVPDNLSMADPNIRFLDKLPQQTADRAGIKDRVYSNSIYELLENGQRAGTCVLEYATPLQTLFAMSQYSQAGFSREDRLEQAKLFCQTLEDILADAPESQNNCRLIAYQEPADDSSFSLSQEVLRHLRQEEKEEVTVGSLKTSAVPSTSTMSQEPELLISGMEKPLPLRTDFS
# assay_details: IFN-β mRNA level in THP1 cells (qPCR, STING agonist cellular activity)
# Type: cell-based
# condition_description: compound at 3.6 μM, 2 hrs, IFNβ expression normalized against GAPDH by the 2^-ΔΔCT method, DMSO = 1.0
endpoint_label: Relative mRNA INFβ/GAPDH THP 1

molecule	Relative mRNA INFβ/GAPDH THP 1
COc1cc(CN(Cc2cn3c4c(c(N5CCC(N6CCOCC6)CC5)c(F)cc4c2=O)OCC3C)[C@H]2CCCN(c3ccc(N)nc3)C2)ccn1 (stereo partly shown)	9395.6
Cc1cncc(CN(Cc2cn3c4c(c(N5CCN(C)CC5)c(F)cc4c2=O)OCC3)[C@@H]2CCCN(c3cnccn3)C2)c1	1.2
COc1cc(CN(Cc2cn3c4c(c(F)c(F)cc4c2=O)OCC3C(C)C)[C@H]2CCCN(c3ccc(N)nc3)C2)ccn1 (stereo partly shown)	433.0
COc1cc(CN(Cc2cn3c4c(c(N5CCNCC5C)c(F)cc4c2=O)OCC3C)[C@H]2CCCN(c3ccc(N)nc3)C2)ccn1 (stereo partly shown)	1.2
Nc1ccc(N2CCC[C@H](N(Cc3ccc(C(F)(F)F)cc3F)Cc3cn4c5c(c(F)c(F)cc5c3=O)OCC4)C2)cn1	1.4

[A] COc1cc(CN(Cc2cn3c4c(c(C5=CCSCC5)c(F)cc4c2=O)OCC3C)[C@H]2CCCN(c3ccc(N)nc3)C2)ccn1 (stereo partly shown)
[B] COc1cc(CN(Cc2cn3c4c(c(N5CCNCC5)c(F)cc4c2=O)OCC3C)[C@H]2CCCN(c3ccc(N)nc3)C2)ccn1 (stereo partly shown)
Lab note: check whether A or B has the lower measured Relative mRNA INFβ/GAPDH THP 1. Identify your pick by its label. B

[I] COc1cc(CN(Cc2cn3c4c(c(F)c(F)cc4c2=O)OC(C)(C)C3)[C@H]2CCCN(c3ccc(N)nc3)C2)ccn1
[II] CC1COc2c(F)c(F)cc3c(=O)c(CN(Cc4ccncc4)[C@H]4CCCN(c5ccc(N)nc5)C4)cn1c23 (stereo partly shown)
[III] NC(=O)c1cc(CN(Cc2cn3c4c(c(F)c(F)cc4c2=O)OCC3)[C@H]2CCCN(c3cnccn3)C2)ccn1
Sort (3 molecules) by Relative mRNA INFβ/GAPDH THP 1: min first. List the labels, following the order given in the request. III, II, I
(III: 1.1, II: 1261.9, I: 6723.5)

[A] Cc1cc(CN(Cc2cn3c4c(c(F)c(F)cc4c2=O)OCC3C)[C@H]2CCCN(c3ccc(N)nc3)C2)ccn1 (stereo partly shown)
[B] Cc1cc(CN(Cc2cn3c4c(c(F)c(F)cc4c2=O)OCC3)[C@H]2CCCN(c3cccnc3)C2)ccn1
[C] COc1cc(CN(Cc2cn3c4c(c(OCc5ccccc5)c(F)cc4c2=O)OCC3C)[C@H]2CCCN(c3ccc(N)nc3)C2)ccn1 (stereo partly shown)
Parameters: sort_field (Relative mRNA INFβ/GAPDH THP 1), sort_dir (desc). List the labels, following the order given in the request. B, A, C
(B: 5719.5, A: 1356.3, C: 915.2)
